- study-target: CDK2/CyclinE (Homo sapiens)
- procedure-details: CDK2/CyclinE Flashplate assay, 96-well format, biotinylated-Rb peptide substrate
pIC50: −log10 of the molar value.
Quick reference for pIC50 among some compounds
recorded-endpoint: pIC50

> print(dat)
                                    compound  recorded.endpoint  result.number
 1  O=C(NCCCN1CCCC1=O)Nc1nc2cc(OS(=O)(=O)c3ccc(NCC4CCCO4)cc3)ccc2[nH]1 (stereo not shown) [Example 59-p]              pIC50           7.77
 2  O=C(NCCN1CCOCC1)Nc1nc2cc(OS(=O)(=O)c3ccc(NC4CCCC4)cc3)ccc2[nH]1 [Example 58-v]              pIC50           7.00
 3  CNc1ccc(S(=O)(=O)Oc2ccc3[nH]c(NC(=O)OC)nc3c2)cc1 [Example 14]              pIC50           6.70
 4  O=C(Nc1nc2cc(OS(=O)(=O)c3ccc(NC4CCCC4)cc3)ccc2[nH]1)N1CCC1 [Example 58-i]              pIC50           6.52
 5  O=C(NCCO)Nc1nc2cc(OS(=O)(=O)c3ccc(NCC4CCCO4)cc3)ccc2[nH]1 (stereo not shown) [Example 59-b]              pIC50           8.15
 6  CN(C)c1ccc(Nc2nc3cc(OS(=O)(=O)c4ccc(NC5CCCC5)cc4)ccc3[nH]2)cc1 [Example 70-e]              pIC50           6.10
 7  COC(=O)Nc1nc2cc(OS(=O)(=O)c3ccc(NCCCCO)cc3)ccc2[nH]1 [Example 2]              pIC50           6.15
 8  COC(=O)CCC(=O)Nc1nc2cc(OS(=O)(=O)c3ccc(-n4ccnc4)cc3)ccc2[nH]1 [Example 23]              pIC50           6.40
 9  O=C(Nc1nc2cc(OS(=O)(=O)c3ccc(NCC4CCCO4)cc3)ccc2[nH]1)NC1CCC1 (stereo not shown) [Example 59-o]              pIC50           7.40
10  CCC(CO)Nc1ccc(S(=O)(=O)Oc2ccc3[nH]c(NC(=O)OC)nc3c2)cc1 (stereo not shown) [Example 11]              pIC50           6.30
11  CCCCNC(=O)Nc1nc2cc(OS(=O)(=O)c3ccc(NC4CCCC4)cc3)ccc2[nH]1 [Example 35]              pIC50           6.92
12  COc1cc(Nc2nc3cc(OS(=O)(=O)c4ccc(NC5CCCC5)cc4)ccc3[nH]2)cc(C(F)(F)F)c1 [Example 70-f]              pIC50           5.30
13  COC(=O)Nc1nc2cc(OS(=O)(=O)c3ccc(-c4ccon4)s3)ccc2[nH]1 [Example 62-c]              pIC50           6.10
14  O=S(=O)(Oc1ccc2[nH]c(Nc3ccc(N4CCOCC4)cc3)nc2c1)c1ccc(NC2CCCC2)cc1 [Example 70-b]              pIC50           5.52
15  COC(=O)Nc1nc2cc(OS(=O)(=O)c3ccc(-n4ccnc4)cc3)ccc2[nH]1 [Example 4]              pIC50           5.82
16  COC(=O)CCCNC(=O)Nc1nc2cc(OS(=O)(=O)c3ccc(NC4CCCC4)cc3)ccc2[nH]1 [Example 58-m]              pIC50           7.52
